Would you kindly list mortality at 1000 µg/mL for each of these molecules?
Tested on: Mythimna separata
Protocol Description: Insecticidal activity against pre-third-instar larvae of Mythimna separata (Oriental armyworm) in wheat leaves at 1 mg/mL after 20 days by leaf-dipping method
Assay type: functional
Reported Conditions: 480 h
Dear colleague, please send the value followed by its unit.

Request the reported mortality at 1000 µg/mL associated with CCc1ccc(S(=O)(=O)O/N=C2/c3cc4c(cc3[C@@H](c3cc(OC)c(OC)c(OC)c3)[C@@H]3C(=O)OC[C@H]23)OCO4)cc1
17.2%

Request the reported mortality at 1000 µg/mL associated with COc1cc([C@@H]2c3cc4c(cc3/C(=N/OS(=O)(=O)c3ccc(Cl)cc3)[C@H]3COC(=O)[C@@H]23)OCO4)cc(OC)c1OC
37.9%

Request the reported mortality at 1000 µg/mL associated with COC(=O)[C@@H]1[C@H](c2cc(OC)c(OC)c(OC)c2)c2cc3c(cc2C2=NOC[C@H]21)OCO3
31%

Request the reported mortality at 1000 µg/mL associated with COc1cc([C@@H]2c3cc4c(cc3/C(=N/OS(=O)(=O)c3ccccc3)[C@H]3COC(=O)[C@@H]23)OCO4)cc(OC)c1OC
6.9%

Request the reported mortality at 1000 µg/mL associated with COc1cc([C@@H]2c3cc4c(cc3C(=O)[C@H]3COC(=O)[C@@H]23)OCO4)cc(OC)c1OC
20.7%

Request the reported mortality at 1000 µg/mL associated with CCOC(=O)[C@@H]1[C@H](c2cc(OC)c(OC)c(OC)c2)c2cc3c(cc2C2=NOC[C@H]21)OCO3
31%

Request the reported mortality at 1000 µg/mL associated with COc1cc([C@@H]2c3cc4c(cc3C(=O)[C@H]3COC(=O)[C@H]23)OCO4)cc(OC)c1OC
3.5%

Request the reported mortality at 1000 µg/mL associated with COc1cc([C@@H]2c3cc4c(cc3/C(=N/OS(=O)(=O)c3cccc([N+](=O)[O-])c3)[C@H]3COC(=O)[C@@H]23)OCO4)cc(OC)c1OC
3.5%

Request the reported mortality at 1000 µg/mL associated with COc1cc([C@@H]2c3cc4c(cc3C3=NOC[C@H]3[C@@H]2COC(=O)Cc2ccccc2)OCO4)cc(OC)c1OC
6.9%

Request the reported mortality at 1000 µg/mL associated with COc1ccc(COC(=O)[C@@H]2[C@H](c3cc(OC)c(OC)c(OC)c3)c3cc4c(cc3C3=NOC[C@H]32)OCO4)cc1
37.9%

Request the reported mortality at 1000 µg/mL associated with COc1cc([C@@H]2c3cc4c(cc3/C(=N/OS(C)(=O)=O)[C@H]3COC(=O)[C@@H]23)OCO4)cc(OC)c1OC
17.2%

Request the reported mortality at 1000 µg/mL associated with COc1cc([C@@H]2c3cc4c(cc3C3=NOC[C@H]3[C@@H]2COC(=O)c2cccc(F)c2)OCO4)cc(OC)c1OC
34.5%

Request the reported mortality at 1000 µg/mL associated with COc1cc([C@@H]2c3cc4c(cc3C3=NOC[C@H]3[C@@H]2COC(=O)c2ccccc2)OCO4)cc(OC)c1OC
27.6%

Request the reported mortality at 1000 µg/mL associated with COc1cc([C@@H]2c3cc4c(cc3/C(=N/OS(=O)(=O)c3ccc(Br)cc3)[C@H]3COC(=O)[C@@H]23)OCO4)cc(OC)c1OC
10.3%

Request the reported mortality at 1000 µg/mL associated with COc1cc([C@@H]2c3cc4c(cc3C3=NOC[C@H]3[C@@H]2C(=O)OCc2cccc(F)c2)OCO4)cc(OC)c1OC
34.5%

Request the reported mortality at 1000 µg/mL associated with COc1cc([C@@H]2c3cc4c(cc3C3=NOC[C@H]3[C@@H]2COC(=O)c2ccc([N+](=O)[O-])cc2)OCO4)cc(OC)c1OC
37.9%

Request the reported mortality at 1000 µg/mL associated with CCCCOC(=O)[C@@H]1[C@H](c2cc(OC)c(OC)c(OC)c2)c2cc3c(cc2C2=NOC[C@H]21)OCO3
34.5%

Request the reported mortality at 1000 µg/mL associated with COc1cc([C@@H]2c3cc4c(cc3/C(=N/O)[C@H]3COC(=O)[C@@H]23)OCO4)cc(OC)c1OC
6.9%

Request the reported mortality at 1000 µg/mL associated with CCCC(=O)OC[C@@H]1[C@H](c2cc(OC)c(OC)c(OC)c2)c2cc3c(cc2C2=NOC[C@H]21)OCO3
13.8%

Request the reported mortality at 1000 µg/mL associated with COc1cc([C@@H]2c3cc4c(cc3C3=NOC[C@H]3[C@@H]2C(=O)OCCc2ccccc2)OCO4)cc(OC)c1OC
27.6%

Request the reported mortality at 1000 µg/mL associated with COc1cc([C@@H]2c3cc4c(cc3C3=NOC[C@H]3[C@@H]2CO)OCO4)cc(OC)c1OC
20.7%

Request the reported mortality at 1000 µg/mL associated with COc1cc([C@@H]2c3cc4c(cc3C3=NOC[C@H]3[C@@H]2C(=O)OCc2ccc([N+](=O)[O-])cc2)OCO4)cc(OC)c1OC
24.1%

Request the reported mortality at 1000 µg/mL associated with COc1cc([C@@H]2c3cc4c(cc3/C(=N\O)[C@H]3COC(=O)[C@H]23)OCO4)cc(OC)c1OC
24.1%

Request the reported mortality at 1000 µg/mL associated with COc1cc([C@@H]2c3cc4c(cc3[C@H](O)[C@H]3COC(=O)[C@H]23)OCO4)cc(OC)c1OC
10.3%

Request the reported mortality at 1000 µg/mL associated with CCCCNC(=O)[C@@H]1[C@H](c2cc(OC)c(OC)c(OC)c2)c2cc3c(cc2C2=NOC[C@H]21)OCO3
0%

Request the reported mortality at 1000 µg/mL associated with CCCCCCCCOC(=O)[C@@H]1[C@H](c2cc(OC)c(OC)c(OC)c2)c2cc3c(cc2C2=NOC[C@H]21)OCO3
34.5%

Request the reported mortality at 1000 µg/mL associated with CCCCCCCC(=O)OC[C@@H]1[C@H](c2cc(OC)c(OC)c(OC)c2)c2cc3c(cc2C2=NOC[C@H]21)OCO3
6.9%

Request the reported mortality at 1000 µg/mL associated with COc1cc([C@@H]2c3cc4c(cc3/C(=N/OS(=O)(=O)c3ccc(Cl)c([N+](=O)[O-])c3)[C@H]3COC(=O)[C@@H]23)OCO4)cc(OC)c1OC
3.5%
